Target: Human JNK1α1 (Homo sapiens, UniProt P45983)
Sequence (P45983 1-384 isoform P45983-2): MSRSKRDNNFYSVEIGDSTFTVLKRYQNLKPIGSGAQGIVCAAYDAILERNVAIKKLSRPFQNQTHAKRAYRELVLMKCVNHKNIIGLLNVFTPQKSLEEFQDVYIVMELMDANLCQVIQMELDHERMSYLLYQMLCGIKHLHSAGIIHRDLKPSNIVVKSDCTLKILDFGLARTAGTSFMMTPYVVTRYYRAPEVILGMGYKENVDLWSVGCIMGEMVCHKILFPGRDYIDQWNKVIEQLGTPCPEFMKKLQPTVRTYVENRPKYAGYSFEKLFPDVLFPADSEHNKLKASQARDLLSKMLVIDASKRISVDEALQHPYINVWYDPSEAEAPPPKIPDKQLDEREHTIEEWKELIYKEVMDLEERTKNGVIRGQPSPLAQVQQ
Experiment: JNK assay in vitro, phosphorylation of GST-ATF2 with [γ-33P] ATP (JNK1)
Format: biochemical
Settings: ATP at Km (6 μM), 1 μM ATF2, 30° C. 30 min; read-out: IC50 vs. JNK1
Method: JNK activity was measured by phosphorylation of GST-ATF2 (19-96) with [γ-^33P] ATP. […] Human JNK2α2 assay contains 1 nM enzyme, 1 μM ATF2, 8 μM ATP with 1 uCi [γ-^33P] ATP. Human JNK1α1 assay contains 2 nM enzyme, 1 μM ATF2, 6 μM ATP with 1 μCi [γ-^33P] ATP. […] ATP. […] The incorporation of ^33P into ATF2 was quantified on a microplate scintillation counter (Packard Topcount). […] Data were analyzed on Microsoft Excel for parameter estimation.
Metric: IC50 (nM)
Respond with the bare value in nM.

Would you please look over these solved cases?
compound="COC(=O)c1c(Cc2ccc(S(=O)(=O)N3CC[C@H](O)C3)cc2)c(=O)c2ccc(Cl)cc2n1-c1ccccc1 [Compound 87]" value_reported=33.4
compound="COC(=O)c1c(Cc2ccc(S(=O)(=O)NCC(O)CO)cc2)c(=O)c2ccc(Cl)cc2n1-c1ccccc1 (stereo not shown) [Compound 46]" value_reported=45.4

Query: Returns the measured IC50 for the input compound. Input: Nc1cccc(-n2c(-c3ncco3)c(Cc3ccccc3)c(=O)c3ccc(Cl)cc32)n1 [Compound 141]
Reply: 612

Query: Lookup COC(=O)c1c(Cc2cnn(C)c2)c(=O)c2ccc(C(F)(F)F)nc2n1-c1ccccc1 [Compound 129]
Reply: 252

----------
Here, each record is paired with measured melting point data.

compound="COC(=O)c1c(Cc2ccc(S(=O)(=O)N3CCC(O)CC3)cc2)c(=O)c2ccc(F)cc2n1-c1ccccc1 [Compound 110]" value_reported="232 to 233 °C"
compound="COC(=O)c1c(Cc2ccc(S(=O)(=O)CCO)cc2)c(=O)c2ccc(F)cc2n1-c1ccccc1 [Compound 112]" value_reported="165 to 166 °C"
compound="COC(=O)c1c(Cc2ccc(S(C)(=O)=O)cc2)c(=O)c2ccc(C(F)(F)F)nc2n1-c1ccccc1 [Compound 115]" value_reported="193 to 195 °C"
compound="COC(=O)c1c(Cc2ccc(Cl)nc2)c(=O)c2ccc(C)nc2n1-c1ccccc1 [Compound 83]" value_reported="220 to 220.5 °C"
compound="COC(=O)c1c(Cc2ccc(C(=O)NCCO)cc2)c(=O)c2ccc(C(F)(F)F)nc2n1-c1ccccc1 [Compound 116]" value_reported="170 to 173 °C"
compound="COC(=O)c1c(Cc2ccc(S(C)(=O)=O)nc2)c(=O)c2ccc(C)nc2n1-c1ccccc1 [Compound 92]" value_reported="217 to 218 °C"
compound="COC(=O)c1c(Cc2ccc(SCCO)cc2)c(=O)c2ccc(F)cc2n1-c1ccccc1 [Compound 111]" value_reported="163 to 164 °C"
compound="COC(=O)c1c(Cc2ccc(S(=O)(=O)N3CCNCC3)cc2)c(=O)c2ccc(Cl)cc2n1-c1ccccc1.Cl [Compound 67]" value_reported="214 to 215.5 °C"
compound="COC(=O)c1c(CN2CCC(C#N)CC2)c(=O)c2ccc(F)cc2n1-c1ccccc1 [Compound 136]" value_reported="159 to 160 °C"
compound="COCCOC(=O)c1c(Cc2ccccc2)c(=O)c2ccc(F)cc2n1-c1ccccc1 [Compound 130]" value_reported="168 to 169 °C"

Query: Returns the measured melting point for the input compound. Input: COC(=O)c1c(Cc2ccc(S(=O)(=O)N3CCNCC3)cc2)c(=O)c2ccc(Cl)cc2n1-c1ccccc1.O=C(O)C(F)(F)F [Compound 66]
Reply: 203 to 205 °C

Query: Lookup COC(=O)c1c(CN2CCN(S(C)(=O)=O)CC2)c(=O)c2ccc(F)cc2n1-c1ccccc1 [Compound 131]
Reply: 205 to 207 °C

Query: Lookup COC(=O)c1c(Cc2ccc(C(=O)N(C)C)nc2)c(=O)c2ccc(C)nc2n1-c1ccccc1 [Compound 103]
Reply: 235 to 236 °C

Query: Lookup COC(=O)c1c(Cc2ccc(S(=O)(=O)N3CCN(C)CC3)cc2)c(=O)c2ccc(Cl)cc2n1-c1ccccc1 [Compound 30]
Reply: 223.3 to 226.6 °C

Query: Lookup COC(=O)c1c(Cc2ccc(S(=O)(=O)N3CCN(C(=O)OC(C)(C)C)CC3(C)C)cc2)c(=O)c2ccc(F)cc2n1-c1ccccc1 [Compound 113]
Reply: 116 to 117 °C

src = patent US8163906B2
